Origin of the recorded values: patent US12240846B2

Below, each entry is listed with its recorded log10 of IC50.
Test system: K562 cells
protocol-details: K562 cell proliferation assay (CellTiter-Glo)
Assay type: cell-based
condition-notes: Homo sapiens, K562 cell viability, 72 hours, read-out: Cell Line (IC50, nM) K562
Friendly reminder: values = log10 of IC50, unit nM.

Checklist item: log10 of IC50 tested on K562 cells, entry COc1ncc(F)c(OC)c1-c1cc2cc(NC(=O)NCCN3CCNCC3)ncc2n1C [Compound 82, formic acid] , value?
2.10

Checklist item: log10 of IC50 tested on K562 cells, entry COc1cccc(OC)c1-c1cc2cc(NC(=O)[C@@H]3C[C@@H]3F)ncc2n1C [Compound 119] , value?
0.97

Checklist item: log10 of IC50 tested on K562 cells, entry COc1ccccc1-c1cc2cc(NC(=O)[C@H]3C[C@@H]3CN(C)C)ncc2n1C (single isomer, unassigned) [Compound 133] , value?
2.26

Checklist item: log10 of IC50 tested on K562 cells, entry COc1ncc(F)cc1-c1c(C)c2cnc(NC(=O)[C@@H]3C[C@@H]3F)cc2n1C [Compound 57] , value?
2.11

Checklist item: log10 of IC50 tested on K562 cells, entry COc1nc(O)nc(OC)c1-c1cc2cc(NC(=O)[C@@H]3C[C@@H]3F)ncc2n1C [Compound 108] , value?
2.87

***
Checklist item: log10 of IC50 tested on K562 cells, entry COc1ccnc(C)c1-c1cc2cc(NC(=O)[C@@H]3C[C@@H]3F)ncc2n1C [Compound 86] , value?
2.85

Checklist item: log10 of IC50 tested on K562 cells, entry COc1ccccc1-c1c(C#N)c2cc(NC(=O)C3CC3)ncc2n1C [Compound 47] , value?
3.13

Checklist item: log10 of IC50 tested on K562 cells, entry COc1nc(C)nc(OC)c1-c1cc2cc(NC(=O)[C@@H]3C[C@@H]3F)ncc2n1C [Compound 72] , value?
1.59

###

test-system: ABL1 (T315I) (Homo sapiens, UniProt P00519, T315I)
protocol-details: Luminescence-based ABL kinase assay (300 μM ATP), ADP-Glo
Type: biochemical
Below, each entry is listed with its recorded IC50.

// solved cases for IC50 follow
Checklist item: IC50 tested on ABL1 (T315I) (Homo sapiens, UniProt P00519, T315I), entry `COc1ccccc1-c1c(C)c2cc(NC(=O)[C@@H]3C[C@@H]3F)ncc2n1C` , value?
24.7 nM

Checklist item: IC50 tested on ABL1 (T315I) (Homo sapiens, UniProt P00519, T315I), entry COc1ccnc(OC)c1-c1cc2cc(NC(=O)[C@H]3C[C@@H]3CN3CCN(C)CC3)ncc2n1C (single isomer, unassigned) , value?
39.8 nM

Checklist item: IC50 tested on ABL1 (T315I) (Homo sapiens, UniProt P00519, T315I), entry `COc1ncc(F)c(OC)c1-c1cc2cc(NC(=O)[C@@H]3C[C@@H]3F)ncc2n1C` , value?
23.9 nM

Checklist item: IC50 tested on ABL1 (T315I) (Homo sapiens, UniProt P00519, T315I), entry `CCc1ncnc(OC)c1-c1cc2cc(NC(=O)[C@@H]3C[C@@H]3F)ncc2n1C` , value?
1650 nM

Checklist item: IC50 tested on ABL1 (T315I) (Homo sapiens, UniProt P00519, T315I), entry `COc1ccnc(OC)c1-c1cc2cc(NC(=O)[C@@H]3C[C@@H]3F)ncc2n1C` , value?
13.6 nM

Checklist item: IC50 tested on ABL1 (T315I) (Homo sapiens, UniProt P00519, T315I), entry `COc1ncc(F)cc1-c1c(C)c2cnc(NC(=O)[C@@H]3C[C@@H]3F)cc2n1C` , value?
83.7 nM

Checklist item: IC50 tested on ABL1 (T315I) (Homo sapiens, UniProt P00519, T315I), entry `CNc1ncnc(OC)c1-c1cc2cc(NC(=O)[C@@H]3C[C@@H]3F)ncc2n1C` , value?
203 nM

Kindly review the next compound as well.
Checklist item: IC50 tested on ABL1 (T315I) (Homo sapiens, UniProt P00519, T315I), entry `COc1ncccc1-c1cc2cc(NC(=O)[C@H]3C[C@H]3F)ncc2n1C` , value?
124 nM
